Source: patent US20240109912A1

target: CDK7/cyclinH/MAT1 trimeric complex (Homo sapiens (Human)); assay: In vitro CDK7 assay, potency of irreversible covalent inhibitors (kinact/KI); conditions: CDK7 (20 nM enz.) (KI, μM), 20 nM enz.
Collected Ki values appear next to each entry.
Provide only the numeric value, understood in µM.

| MOLECULE | OUTCOME MEASURE | MEASURED |
| --- | --- | --- |
| C=CC(=O)N1CCC(N2CCC(c3ccc4c(c3)Nc3ncnc(N5CCOCC5)c3CO4)CC2)CC1 | Ki | 0.754 |
| C=CC(=O)N1CC(N2CC(c3cc(C)c4c(c3)Nc3ncnc(-c5cnn(C)c5)c3[C@@H](C)O4)C2)C1 (single isomer, unassigned) | Ki | 0.13 |
| C=CC(=O)N1CCC(N2CC(c3cc(F)c4c(c3)Nc3ncnc(N5CCOCC5)c3[C@H](C)O4)C2)CC1 | Ki | 0.336 |

Now turn to the next molecule.
Query: Name the recorded Ki for C=CC(=O)N1CCC(N2CC(c3cc4c(c(C)n3)OCc3c(ncnc3N3CCS(=O)(=O)CC3)N4)C2)C1 (stereo not shown) .
Result: 0.172

====

biological target: CDK7/cyclinH/MAT1 trimeric complex (Homo sapiens (Human)); experiment: In vitro CDK7 assay, potency of irreversible covalent inhibitors (kinact/KI); conditions: CDK7 (20 nM enz.) (KI, μM), 20 nM enz.
// class assignment uses Ki with these ranges: low: < 0.1 µM; intermediate: ≥ 0.1 µM and < 0.5 µM; high: ≥ 0.5 µM

| COMPOUND | ASSIGNED CLASS |
| --- | --- |
| CC#CC(=O)N1CCC(N2CCN(c3cc(C)c4c(c3)Nc3ncnc(N5CCS(=O)(=O)CC5)c3[C@@H](C)O4)CC2)CC1 | low |
| C=CC(=O)N1CC(N2CCC(c3cc(C)c4c(c3)Nc3ncnc(-c5cncc(OCC)c5)c3CO4)CC2)C1 | high |
| [2H]C1(N2CCC(c3cc(C)c4c(c3)Nc3ncnc(N5CCS(=O)(=O)CC5)c3[C@@H](C)O4)CC2)CN(C(=O)C#CC)C1 | low |
| C=CC(=O)N1CC(N2CCC(c3cc(F)c4c(c3)Nc3ncnc(N5CCOCC5)c3[C@@H](C)O4)CC2)C1 (single isomer, unassigned) | low |
| C=CC(=O)N1CC(N2CCC(c3cc(F)c4c(c3)Nc3ncnc(N5CCOCC5)c3[C@H](C)O4)CC2)C1 (single isomer, unassigned) | intermediate |

Query: Class label required: C=CC(=O)N1CCC(N2CCC(c3cc(C)c4c(c3)Nc3ncnc(N5CCS(=O)(=O)CC5)c3CO4)CC2)CC1
Result: low

Query: // same read-out, input: C=CC(=O)N1CC[C@@H](N2CC(c3cc(C)c4c(c3)Nc3ncnc(N5CCOCC5)c3CO4)C2)C1
Result: high

Query: What do we get for C=CC(=O)N1CCC(N2CC(c3cc(C)c4c(c3)Nc3ncnc(N5CCS(=O)(=O)CC5)c3CO4)C2)CC1 ?
Result: intermediate

Query: Now give it for C=CC(=O)N1CC[C@H](N2CC(c3cc4c(c(C5CC5)c3)O[C@H](C)c3c(ncnc3N3CCS(=O)(=O)CC3)N4)C2)C1 (single isomer, unassigned) too.
Result: low

Query: Then C=CC(=O)N1CC[C@H](N2CC(c3cc(C)c4c(c3)Nc3ncnc(N5CCOCC5)c3CO4)C2)C1 ?
Result: high

Query: Quick one: C=CC(=O)N1CC[C@@H](N2CC(c3cc4c(c(C)n3)OCc3c(ncnc3N3CCS(=O)(=O)CC3)N4)C2)C1 (single isomer, unassigned)
Result: intermediate

Query: Could you do the same for C=CC(=O)N1CC(N2CCC(c3cc(C)c4c(c3)Nc3ncnc(N5CCCC(C#N)C5)c3CO4)CC2)C1 (centres unmarked) , please?
Result: high

Query: Next up: C=CC(=O)N1CC(N2CCC(c3cc4c(cn3)OCc3c(ncnc3N3CCOCC3)N4)CC2)C1
Result: intermediate

Query: Let us now turn to C=CC(=O)N1CC(N2CCC(c3cc(C)c4c(c3)Nc3ncnc(N5CCS(=O)(=O)CC5)c3[C@@H](C)O4)CC2)C1 (single isomer, unassigned)
Result: intermediate

====

target: CDK7/cyclinH/MAT1 trimeric complex (Homo sapiens (Human)); assay: In vitro CDK7 assay, potency of irreversible covalent inhibitors (kinact/KI); details: CDK7 (20 nM enz.) (KI, μM), 20 nM enz.
Label yes when Ki is strictly below 0.5 µM; at or above that, label no.

| MOLECULE | STUDY SYSTEM | ASSIGNED CLASS |
| --- | --- | --- |
| C=CC(=O)N1CCC(N2CC(c3cc4c(c(C(F)(F)F)c3)OCc3c(ncnc3-c3cnn(C)c3)N4)C2)CC1 | CDK7/cyclinH/MAT1 trimeric complex (Homo sapiens (Human)) | no |
| C#Cc1cc(C2CCN(C3CN(C(=O)C#CC)C3)CC2)cc2c1O[C@@H](C)c1c(ncnc1N1CCS(=O)(=O)CC1)N2 | CDK7/cyclinH/MAT1 trimeric complex (Homo sapiens (Human)) | yes |
| C=CC(=O)N1CCC(N2CC(c3cc(C)c4c(c3)Nc3ncnc(N5CCS(=N)(=O)CC5)c3CO4)C2)CC1 | CDK7/cyclinH/MAT1 trimeric complex (Homo sapiens (Human)) | yes |

From here, focus on the item given below.
Query: A record lists C=CC(=O)N1CC(N2CCC(c3cc(C)c4c(c3)Nc3ncnc(N5CCC(C#N)CC5)c3CO4)CC2)C1 . Is its Ki below 0.5 µM?
Result: no

====

tested on: RNA polymerase II Serine 5 phosphorylation in A549 cells overexpressing CDK7 mutant (C312S); assay: Imaging-based cellular RNA PolII Ser5 phosphorylation assay in A549 cells overexpressing CDK7-mutant (C312S); format: cell-based, human; conditions: Homo sapiens, A549, A549 cells overexpressing CDK7 mutant (C312S); read-out: CDK7_ A549 mutant hCDK7(pIC50) (converted)
OUTCOME MEASURE: IC50

Check out these entries, answers already filled in.
| COMPOUND | IC50 |
| --- | --- |
| CC#CC(=O)N1CC[C@@H](N2CC(c3cc(C)c4c(c3)Nc3ncnc(N5CCS(=O)(=O)CC5)c3[C@@H](C)O4)C2)C1 | > 10 µM |
| C=CC(=O)N1CCC(N2CCN(c3cc(C)c4c(c3)Nc3ncnc(N5CCS(=O)(=O)CC5)c3CO4)CC2)CC1 | > 10 µM |
| CC#CC(=O)N1CC(N2CCN(c3cc(C)c4c(c3)Nc3ncnc(N5CCS(=O)(=O)CC5)c3[C@@H](C)O4)CC2)C1 | > 10 µM |

Query: Entry C#Cc1cc(C2CCN(C3CN(C(=O)C#CC)C3)CC2)cc2c1O[C@H](C)c1c(ncnc1N1CCS(=O)(=O)CC1)N2 has what IC50?
Result: > 10 µM

====

biological target: CDK7/cyclinH/MAT1 trimeric complex (Homo sapiens (Human), UniProt P50613); assay: In vitro CDK7 assay, potency of irreversible covalent inhibitors (kinact/KI); details: CDK7 (20 nM enz.) (KI, μM), 20 nM enz.
Sequence (P50613 whole entry): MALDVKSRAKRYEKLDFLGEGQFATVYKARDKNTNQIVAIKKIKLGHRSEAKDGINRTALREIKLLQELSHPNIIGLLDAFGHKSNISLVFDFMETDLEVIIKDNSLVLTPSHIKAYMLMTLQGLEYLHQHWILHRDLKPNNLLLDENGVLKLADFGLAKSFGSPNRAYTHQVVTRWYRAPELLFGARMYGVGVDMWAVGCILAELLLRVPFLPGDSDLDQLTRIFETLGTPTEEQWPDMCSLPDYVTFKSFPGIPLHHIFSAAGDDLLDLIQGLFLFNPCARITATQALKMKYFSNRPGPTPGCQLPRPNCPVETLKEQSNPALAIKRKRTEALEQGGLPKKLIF
Sequence (P51946 whole entry partner): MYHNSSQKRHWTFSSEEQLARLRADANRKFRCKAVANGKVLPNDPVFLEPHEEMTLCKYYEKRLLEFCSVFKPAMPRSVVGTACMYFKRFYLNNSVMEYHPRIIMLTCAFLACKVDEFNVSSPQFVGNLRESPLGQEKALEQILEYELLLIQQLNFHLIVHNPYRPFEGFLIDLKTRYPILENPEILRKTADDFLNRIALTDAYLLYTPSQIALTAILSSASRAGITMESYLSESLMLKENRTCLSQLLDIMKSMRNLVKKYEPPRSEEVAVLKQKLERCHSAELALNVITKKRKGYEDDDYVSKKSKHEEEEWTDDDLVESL
Sequence (P51948 whole entry partner): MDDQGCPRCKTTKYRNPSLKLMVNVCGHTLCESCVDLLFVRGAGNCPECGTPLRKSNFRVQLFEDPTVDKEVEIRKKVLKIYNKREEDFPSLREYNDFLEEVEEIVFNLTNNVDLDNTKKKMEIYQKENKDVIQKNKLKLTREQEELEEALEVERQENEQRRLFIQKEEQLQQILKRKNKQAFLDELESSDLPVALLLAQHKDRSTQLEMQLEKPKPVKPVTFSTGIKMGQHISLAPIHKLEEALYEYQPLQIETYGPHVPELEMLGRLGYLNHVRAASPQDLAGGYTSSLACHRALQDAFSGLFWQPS
OUTCOME MEASURE: Ki (µM)
Just the number in µM, nothing appended.

| MOLECULE | UOM | Ki |
| --- | --- | --- |
| CC#CC(=O)N1CC(N2CCC(c3cc(C)c4c(c3)Nc3ncnc(N5CCS(=O)(=O)CC5)c3CO4)CC2)C1 | µM | 0.16 |
| C=CC(=O)N1CC(N2CCC(c3cc(C)c4c(c3)Nc3ncnc(N5CC(CO)C5)c3CO4)CC2)C1 | µM | 0.96 |
| C=CC(=O)N1CC(N2CCC(c3cc4c(c(C5CC5)c3)OCc3c(ncnc3N3CCOCC3)N4)CC2)C1 | µM | 0.175 |

Continue with the compound presented below.
Query: Entry under review: C=CC(=O)N1CCC(N2CC(c3cc(F)c4c(c3)Nc3ncnc(N5CCOCC5)c3[C@@H](C)O4)C2)CC1 . Reported Ki?
Result: 5.21

====

system: RNA polymerase II Serine 5 phosphorylation (CDK7) in A549 cells
OUTCOME MEASURE: IC50 (µM)
# number only, unit µM dropped from output

Examples with answers:
| COMPOUND | OUTCOME MEASURE | MEASURED |
| --- | --- | --- |
| C=CC(=O)N1CC(N2CCC(c3ccc4c(c3)Nc3ncnc(C5CCOCC5)c3CO4)CC2)C1 | IC50 | 1.15 |
| C=CC(=O)N1CC(N2CC[C@@H](c3cc4c(c(C)n3)OCc3c(ncnc3N3CCS(=O)(=O)CC3)N4)C2)C1 | IC50 | 1.51 |
| C=CC(=O)N1CC(N2CCC(c3cc(C)c4c(c3)Nc3ncnc(-c5cncc(OCC)c5)c3CO4)CC2)C1 | IC50 | 1.26 |

Query: Tell me the measured IC50 of C=CC(=O)N1CCC(N2CC(c3cc(C#N)c4c(c3)Nc3ncnc(-c5cnn(C)c5)c3CO4)C2)CC1 , please.
Result: 1.66

Query: One more compound: C=CC(=O)N1CCC(N2CC(c3cc(Cl)c4c(c3)Nc3ncnc(C5CCOCC5)c3CO4)C2)CC1
Result: 0.871

Query: Note, next up: C=CC(=O)N1CCC(N2CCC(c3cc(C)c4c(c3)Nc3ncnc(N5CCS(=N)(=O)CC5)c3CO4)CC2)C1 (stereo not shown)
Result: 0.0501

Query: Check C=CC(=O)N1CC[C@@H](N2CC(c3cc4c(c(C5CC5)c3)O[C@H](C)c3c(ncnc3N3CCS(=O)(=O)CC3)N4)C2)C1 (single isomer, unassigned) too.
Result: 0.525

Query: Can you handle CC#CC(=O)N1CCC(N2CC(c3cc(C)c4c(c3)Nc3ncnc(N5CCS(=O)(=O)CC5)c3CO4)C2)CC1 next?
Result: 0.0912

Query: Then what about the compound [2H]C([2H])([2H])C#CC(=O)N1CC(N2CCC(c3cc(C)c4c(c3)Nc3ncnc(N5CCS(=O)(=O)CC5)c3[C@@H](C)O4)CC2)C1 ?
Result: 0.0537

Query: Moving on to the next compound: C=CC(=O)N1CC(N2CC(c3cc4c(c(C)n3)OCc3c(ncnc3N3CCS(=O)(=O)CC3)N4)C2)C1
Result: 7.24
